# AUC annotations
# System: Cynomolgus monkey
# EXPERIMENT_DESCRIPTION: AUC (infinity) in cynomolgus monkey at 1 mg/kg, po
# Assay type: ADME, organism-based, Macaca fascicularis, Plasma
# Set-up: time infinity, dose 1 mg/kg, route oral
# ASSAY_CONTEXT: in vivo

[
  {
    "COMPOUND": "CC(C)CCn1c(=O)c(C2=NS(=O)(=O)c3cc(NS(=O)(=O)C4CC4)ccc3N2)c(O)c2cccn21",
    "AUC, ng·h/mL": 141
  },
  {
    "COMPOUND": "CC(C)CCn1c(=O)c(C2=NS(=O)(=O)c3cc(N(C)S(C)(=O)=O)ccc3N2)c(O)c2cccn21",
    "AUC, ng·h/mL": 79
  },
  {
    "COMPOUND": "CS(=O)(=O)Nc1ccc2c(c1)S(=O)(=O)N=C(c1c(O)c3cccn3n(Cc3ccc(F)cc3)c1=O)N2",
    "AUC, ng·h/mL": 6
  },
  {
    "COMPOUND": "CC(C)CCn1nc(-c2cccs2)c(O)c(C2=Nc3ccc(NS(C)(=O)=O)cc3S(=O)(=O)N2)c1=O",
    "AUC, ng·h/mL": 30
  },
  {
    "COMPOUND": "CC(C)(C)CCn1c(=O)c(C2=NS(=O)(=O)c3cc(NS(C)(=O)=O)ccc3N2)c(O)c2cccn21",
    "AUC, ng·h/mL": 25
  },
  {
    "COMPOUND": "CC(C)CCn1c(=O)c(C2=NS(=O)(=O)c3ccccc3N2)c(O)c2cccn21",
    "AUC, ng·h/mL": 12900
  },
  {
    "COMPOUND": "CC(C)CCn1c(=O)c(C2=Nc3ccc(NS(C)(=O)=O)cc3S(=O)(=O)N2)c(O)c2cccn21",
    "AUC, ng·h/mL": 83
  },
  {
    "COMPOUND": "CN(c1ccc2c(c1)S(=O)(=O)N=C(c1c(O)c3cccn3n(Cc3ccc(F)cc3)c1=O)N2)S(C)(=O)=O",
    "AUC, ng·h/mL": 107
  }
]
